- target: Cytochrome P450 2C19 (Homo sapiens) (UniProt P33261)
- Sequence (P33261 whole entry, looked up): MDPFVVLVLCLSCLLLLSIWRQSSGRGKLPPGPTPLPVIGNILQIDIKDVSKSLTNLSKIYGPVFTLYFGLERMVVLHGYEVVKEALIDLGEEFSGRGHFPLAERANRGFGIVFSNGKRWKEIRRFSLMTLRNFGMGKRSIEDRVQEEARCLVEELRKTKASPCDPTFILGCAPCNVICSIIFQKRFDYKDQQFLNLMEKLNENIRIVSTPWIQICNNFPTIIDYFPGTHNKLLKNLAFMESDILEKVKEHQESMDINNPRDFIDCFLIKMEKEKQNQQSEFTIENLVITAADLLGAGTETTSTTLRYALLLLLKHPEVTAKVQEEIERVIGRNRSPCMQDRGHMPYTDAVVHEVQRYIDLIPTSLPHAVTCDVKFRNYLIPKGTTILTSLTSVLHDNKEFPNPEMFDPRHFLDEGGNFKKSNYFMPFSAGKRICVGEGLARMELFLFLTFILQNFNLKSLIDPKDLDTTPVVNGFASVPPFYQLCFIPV
- assay.comment: blockers of cytochrome P450 2C19 activity – biochemical, luminescence, ADME assay, primary screen (AID 778);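 also: plate controls were negative control wells for no effect and 2.5 mM tranylcypromine positive control for full effect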
- reported.conditions: CYP2C19 Supersomes, luciferin-H EGE luminescence, 30 min; at 5 µM; hits give high values
The whole screen tested about 96,000 compounds, of which about 20,000 (21%) were called active. These entries were drawn from the full list.
experimental.endpoint: inhibition (%)
Answers are plain numbers, in %.

Batch: inhibition for all items listed.
1. COc1cc(C2CC(=O)N3CN(Cc4ccccc4)CSC3=C2C#N)ccc1OCc1ccccc1 (stereo not given)
2. CN(c1nc2ccccc2n2c(-c3ccco3)nnc12)S(=O)(=O)c1ccccc1
3. Cc1cccc(Cn2c(SCCO)nc3c2c(=O)n(C)c(=O)n3C)c1
4. CC(=O)c1sc(NC(=O)c2ccc(C)cc2)nc1C
5. COc1cccc(-c2nnc(N(C)C(=O)c3ccno3)s2)c1
6. O=C(C1CCC1)N1CCc2cc(S(=O)(=O)NCc3cccnc3)ccc21
7. Cc1ccc(S(=O)(=O)NCC(=O)N2CCN(c3ccccn3)CC2)cc1
8. COc1ccc(C(=O)Nc2nc(-c3ccc(OC)cc3)c(-c3ccc([N+](=O)[O-])cc3)s2)cc1

Result:
[33, 1.3, 51.7, 4.1, 11.1, 10, -1.8, 6.9]

Look at each compound and report its inhibition.
1. COc1ccc(-c2[nH]nc(-c3ccccc3)c2-c2nc3ccccc3[nH]2)cc1
2. COc1cccc(C(=O)Nc2c3c(nn2-c2cccc(C)c2C)CS(=O)(=O)C3)c1OC

Result:
[11.3, -2.2]
